- systemTested: Fuc(a1-2)[Gal(a1-3)]Gal(b1-4)GlcNAc(b1-2)Man(a1-3)[Fuc(a1-2)[Gal(a1-3)]Gal(b1-4)GlcNAc(b1-2)Man(a1-6)]Man(b1-4)GlcNAc(b1-4)GlcNAc
- procedureText: glycan array binding signal (z-score within array); higher = stronger binding
- assayContext: glycan notation: IUPAC condensed, linker removed
The entries come from a sample that favours the strongest signals as a whole.

| binder | glycan array binding signal (z-score) |
| --- | --- |
| Gal 3 (Canis lupus) (protein) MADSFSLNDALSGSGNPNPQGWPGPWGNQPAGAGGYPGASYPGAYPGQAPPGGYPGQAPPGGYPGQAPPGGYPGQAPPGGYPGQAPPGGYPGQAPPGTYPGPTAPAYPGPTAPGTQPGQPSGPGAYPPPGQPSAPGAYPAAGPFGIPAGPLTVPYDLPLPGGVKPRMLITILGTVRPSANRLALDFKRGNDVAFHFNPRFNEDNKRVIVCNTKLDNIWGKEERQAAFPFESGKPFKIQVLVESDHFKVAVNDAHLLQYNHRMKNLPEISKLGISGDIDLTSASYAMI | 7.41 |
| Gal 2 (Canis lupus) (protein) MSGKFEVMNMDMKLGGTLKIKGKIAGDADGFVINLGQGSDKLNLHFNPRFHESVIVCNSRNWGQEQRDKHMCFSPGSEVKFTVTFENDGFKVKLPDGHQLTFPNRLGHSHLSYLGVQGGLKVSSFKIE | 15.5 |
